Recorded values, source the domain aggregation screens of Martell et al. (2025).

- EXPERIMENT_NOTES: soluble fraction after stress (log2 fold change); higher = more stays soluble; pooled small domains, quantitative proteomics
- ASSAY_CONDITIONS: stress: 50 degC
In this section, each of the sequences is paired with its reported soluble fraction (log2).
READOUT_NAME: soluble fraction (log2)

>>> df
                                        seq  experimental_result
0  HMSETAVTYNEDFEADGSLRPNEQAVLDAFTGVLKLTVSELEKKTGLRNVVPVVASLMAKGAVEVSEELK               0.0501
1  HMGVITVRPPIVVRDFAIALNLKPFQVIGNLMELNKVVSVSSVIEEADARKVAERHGYTLEIRH               -0.516
2  HMTAKQDLDSIYRHLVATRKSIAENPKMVSSIDDPQALIKMLDYAIQYFYTDKRDEALAVLEKNEEQLNFR               -0.117
3  HMNMAVELEDGTQIFVFSEDGEFAGKRAVIADEEGRPTEENAPAGTHTLRDGRSIVVGEGGVIESVVET               0.0438
4  HMPLDYQELRNISPQAARQAILQILKANKGNVSQTARMLGITRKTVYKAMAKREAGNLDDGSRAPK               -0.554
5  HMSIQMPDLSITPVTDAKKKIESLQLQYKEVGEYNDSVIAGYVIRTEPASGSYLNEDEEVIIYVSKG               -0.246
6  HMRSPLYVQIKQHILGDIRKGVWKPGEKLPTELDLAERFGVSVGTVRRAMGGLEDEGIISRREGSGTFVRT               0.0686
7  HMQYDALVLNLLQEKNLTSESLKDAQRAFAKSHNLSTLPSKSQILQAYFQLLEQGKIEKNPDFELLL               -0.108
